- Target desc: FZD2 cysteine-rich domain (CRD), MYC-tagged and GPI-anchored on CHO cells (human, UniProt Q14332 35-161)
- Test details: flow cytometry, CHO-CRD cells;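 further: flow cytometry of Fab binding to CHO cells overexpressing a Frizzled CRD, with binding defined as median fluorescence over twice that of CHO cells lacking any Frizzled CRD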
Task for the reader: assign each of the following binders its reported median fluorescence.
Give bare numbers.

Binder	Measured
Fab-2910 (Fab, V domains shown, Fab) VH: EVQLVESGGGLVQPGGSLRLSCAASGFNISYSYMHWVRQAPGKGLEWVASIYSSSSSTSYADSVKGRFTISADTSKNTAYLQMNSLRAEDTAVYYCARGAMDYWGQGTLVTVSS VL: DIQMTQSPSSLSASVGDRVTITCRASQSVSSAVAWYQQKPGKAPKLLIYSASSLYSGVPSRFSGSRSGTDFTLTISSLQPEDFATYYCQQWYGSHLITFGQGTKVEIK	4.47
Fab-2919 (Fab, V domains shown, Fab) VH: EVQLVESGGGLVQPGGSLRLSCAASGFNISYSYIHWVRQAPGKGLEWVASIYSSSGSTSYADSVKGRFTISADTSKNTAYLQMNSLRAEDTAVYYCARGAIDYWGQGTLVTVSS VL: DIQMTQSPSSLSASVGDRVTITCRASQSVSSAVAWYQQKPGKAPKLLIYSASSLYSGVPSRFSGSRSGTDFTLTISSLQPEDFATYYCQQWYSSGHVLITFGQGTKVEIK	4.26
Fab-2924 (Fab, V domains shown, Fab; also called Fv-2924) VH: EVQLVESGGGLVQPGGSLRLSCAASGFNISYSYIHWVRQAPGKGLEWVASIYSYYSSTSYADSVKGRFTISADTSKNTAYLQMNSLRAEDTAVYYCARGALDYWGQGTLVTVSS VL: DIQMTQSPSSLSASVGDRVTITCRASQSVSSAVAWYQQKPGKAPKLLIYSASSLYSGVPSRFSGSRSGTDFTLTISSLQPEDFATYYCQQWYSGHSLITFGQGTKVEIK	6.73
Fab-2906 (Fab, V domains shown, Fab; also called Fv-2906) VH: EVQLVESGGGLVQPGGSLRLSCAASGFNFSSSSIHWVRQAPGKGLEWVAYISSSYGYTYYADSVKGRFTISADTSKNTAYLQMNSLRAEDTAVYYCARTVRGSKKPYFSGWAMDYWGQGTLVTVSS VL: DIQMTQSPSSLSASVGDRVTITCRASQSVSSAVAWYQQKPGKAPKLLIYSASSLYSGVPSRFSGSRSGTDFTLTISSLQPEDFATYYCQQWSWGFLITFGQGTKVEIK	5.09
Fab-2927 (Fab, V domains shown, Fab; also called Fv-2927) VH: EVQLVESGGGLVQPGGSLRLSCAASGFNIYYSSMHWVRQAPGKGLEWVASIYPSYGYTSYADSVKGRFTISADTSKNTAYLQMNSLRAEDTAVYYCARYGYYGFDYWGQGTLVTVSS VL: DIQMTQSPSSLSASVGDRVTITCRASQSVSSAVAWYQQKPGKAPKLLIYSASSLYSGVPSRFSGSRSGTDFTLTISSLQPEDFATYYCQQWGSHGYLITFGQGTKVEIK	17.9

For each listed entry, give its median fluorescence.
1. Fab-2899 (Fab, V domains shown, Fab; also called Fv-2899) VH: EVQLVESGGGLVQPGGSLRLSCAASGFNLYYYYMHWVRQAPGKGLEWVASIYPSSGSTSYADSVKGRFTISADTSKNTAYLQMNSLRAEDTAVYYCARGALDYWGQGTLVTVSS VL: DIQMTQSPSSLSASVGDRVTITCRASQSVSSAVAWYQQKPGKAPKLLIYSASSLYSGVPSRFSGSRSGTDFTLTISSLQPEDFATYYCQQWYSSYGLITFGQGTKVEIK
2. Fab-2902 (Fab, V domains shown, Fab; also called Fv-2902) VH: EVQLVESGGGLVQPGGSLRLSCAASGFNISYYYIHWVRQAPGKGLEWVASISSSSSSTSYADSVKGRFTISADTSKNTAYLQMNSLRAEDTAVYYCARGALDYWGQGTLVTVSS VL: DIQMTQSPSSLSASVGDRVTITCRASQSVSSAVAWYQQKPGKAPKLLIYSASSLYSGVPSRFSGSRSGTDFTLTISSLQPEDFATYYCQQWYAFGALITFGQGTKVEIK
3. Fab-2898 (Fab, V domains shown, Fab; also called Fv-2898) VH: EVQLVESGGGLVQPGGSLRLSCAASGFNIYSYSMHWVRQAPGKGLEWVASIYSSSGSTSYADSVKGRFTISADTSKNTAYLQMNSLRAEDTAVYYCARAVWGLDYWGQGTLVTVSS VL: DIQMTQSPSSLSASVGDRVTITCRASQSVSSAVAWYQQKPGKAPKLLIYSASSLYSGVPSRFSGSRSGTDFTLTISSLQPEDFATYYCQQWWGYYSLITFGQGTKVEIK
4. Fab-2935 (Fab, V domains shown, Fab; also called Fv-2935) VH: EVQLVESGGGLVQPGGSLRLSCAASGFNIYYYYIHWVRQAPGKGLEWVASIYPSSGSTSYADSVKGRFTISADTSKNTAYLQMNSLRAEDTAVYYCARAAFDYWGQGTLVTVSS VL: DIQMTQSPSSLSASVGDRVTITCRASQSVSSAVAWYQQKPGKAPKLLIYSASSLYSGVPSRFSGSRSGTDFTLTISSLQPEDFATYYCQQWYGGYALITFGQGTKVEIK

Completion:
1: 20.7; 2: 8.98; 3: 13.5; 4: 6.79
